Assay: small-molecule microarray binders of probe aWnt5a, primary screen, biochemical, biotinylated probe, 635/667 nm fluorescence (AID 1113);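 also: score merges 667 nm fluorescence intensity with signal-to-noise per printed feature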
Details: higher = more signal
Attribute Measured: composite z-score

Molecule	Reported Value
COc1ccc(C(O)C2C=CC3C(=O)N(Cc4ccccc4)C(=O)C3N2n2cnnc2)c2ccccc12 (stereo not drawn)	-0.12
[N-]=[N+]=NCc1ccccc1C[C@]1(C(=O)NCC(O)CO)N=C(c2ccc(OCCCO)cc2)O[C@H]1c1ccccc1CN=[N+]=[N-] (stereo partly drawn)	0.115
COc1cc2c(cc1OC)CN(C(=O)[C@H]1[C@@H]3C(=O)O[C@@H](c4ccccc4)[C@@H](c4ccccc4)N3[C@@H](c3ccc(OCCO)cc3)[C@]13C(=O)Nc1ccc(C#CCCO)cc13)CC2	0.0668
